Target Desc: huPD-L1 (Homo sapiens, UniProt Q9NZQ7)
Sequence (Q9NZQ7 19-290): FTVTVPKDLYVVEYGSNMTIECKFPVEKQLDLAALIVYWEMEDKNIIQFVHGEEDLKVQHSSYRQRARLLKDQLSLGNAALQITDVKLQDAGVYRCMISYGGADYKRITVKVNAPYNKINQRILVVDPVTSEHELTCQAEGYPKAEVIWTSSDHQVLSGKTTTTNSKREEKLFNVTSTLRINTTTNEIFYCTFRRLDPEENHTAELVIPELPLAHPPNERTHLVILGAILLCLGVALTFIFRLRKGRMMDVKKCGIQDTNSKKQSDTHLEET
Test Name: Flow binding to CHO cells stably expressing PD-L1
Set-up: huCTLA4 and huPD-L1, full-length mammalian surface expression constructs were generated; expressed in transfected cells; host or cells: CHO cells, lentiviral transduction, sorted to >98% purity
Test Context: Table E4; 33.3 nM; CHO cells stably expressing PD-L1
Assay Endpoint: PD-L1 MFI at 33.3 nM
Numbers only.

molecule="E35D/M43I/M47V/K89N (protein, UniProt P33681 35-288, looked up, variant E35D M43I M47V K89N) T-lymphocyte activation …: VIHVTKEVKEVATLSCGHNVSVEELAQTRIYWQKDKKMVLTMISGDVNIWPEYKNRTIFDITNNLSIVILALRPSDEGTYECVVLKYENDAFKREHLAEVTLSVKADFPTPSISDFEIPTSNIRRIICSTSGGFPEPHLSWLENGEELNAINTTVSQDPETELYAVSSKLDFNMTTNHSFMCLIKYGHLRVNQTFNWNTTKQEHFPDNLLPSWAITLISVNGIFVICCLTYCFAPRCRERRRNERLRRESVRPV" measurement=19250
molecule="R29H/E35D/M43V/M47I/I49V (protein, UniProt P33681 35-288, looked up, variant R29H E35D M43V M47I I49V) T-lymphocyte activation …: VIHVTKEVKEVATLSCGHNVSVEELAQTHIYWQKDKKMVLTMVSGDINVWPEYKNRTIFDITNNLSIVILALRPSDEGTYECVVLKYEKDAFKREHLAEVTLSVKADFPTPSISDFEIPTSNIRRIICSTSGGFPEPHLSWLENGEELNAINTTVSQDPETELYAVSSKLDFNMTTNHSFMCLIKYGHLRVNQTFNWNTTKQEHFPDNLLPSWAITLISVNGIFVICCLTYCFAPRCRERRRNERLRRESVRPV" measurement=1590
molecule="E35D/M47I/L85Q/D90G (protein, UniProt P33681 35-288, looked up, variant E35D M47I L85Q D90G) T-lymphocyte activation …: VIHVTKEVKEVATLSCGHNVSVEELAQTRIYWQKDKKMVLTMMSGDINIWPEYKNRTIFDITNNLSIVILALRPSDEGTYECVVQKYEKGAFKREHLAEVTLSVKADFPTPSISDFEIPTSNIRRIICSTSGGFPEPHLSWLENGEELNAINTTVSQDPETELYAVSSKLDFNMTTNHSFMCLIKYGHLRVNQTFNWNTTKQEHFPDNLLPSWAITLISVNGIFVICCLTYCFAPRCRERRRNERLRRESVRPV" measurement=35710
molecule="Q33L/E35D/M47I/N48D/A71G (protein, UniProt P33681 35-288, looked up, variant Q33L E35D M47I N48D A71G) T-lymphocyte activation …: VIHVTKEVKEVATLSCGHNVSVEELAQTRIYWLKDKKMVLTMMSGDIDIWPEYKNRTIFDITNNLSIVILGLRPSDEGTYECVVLKYEKDAFKREHLAEVTLSVKADFPTPSISDFEIPTSNIRRIICSTSGGFPEPHLSWLENGEELNAINTTVSQDPETELYAVSSKLDFNMTTNHSFMCLIKYGHLRVNQTFNWNTTKQEHFPDNLLPSWAITLISVNGIFVICCLTYCFAPRCRERRRNERLRRESVRPV" measurement=31151
molecule="E35D/L85Q/K93I/E95V/L97Q (protein) VIHVTKEVKEVATLSCGHNVSVEELAQTRIYWQKDKKMVLTMMSGDMNIWPEYKNRTIFDITNNLSIVILALRPSDEGTYECVVQKYEKDAFTRVHQAEVTLSVKAD" measurement=19880
molecule="E35D/D46E/M47V/N63D/L85Q (protein, UniProt P33681 35-288, looked up, variant E35D D46E M47V N63D L85Q) T-lymphocyte activation …: VIHVTKEVKEVATLSCGHNVSVEELAQTRIYWQKDKKMVLTMMSGEVNIWPEYKNRTIFDITDNLSIVILALRPSDEGTYECVVQKYEKDAFKREHLAEVTLSVKADFPTPSISDFEIPTSNIRRIICSTSGGFPEPHLSWLENGEELNAINTTVSQDPETELYAVSSKLDFNMTTNHSFMCLIKYGHLRVNQTFNWNTTKQEHFPDNLLPSWAITLISVNGIFVICCLTYCFAPRCRERRRNERLRRESVRPV" measurement=69780
molecule="E35D/M47I/Y87Q/K89E (protein, UniProt P33681 35-288, looked up, variant E35D M47I Y87Q K89E) T-lymphocyte activation …: VIHVTKEVKEVATLSCGHNVSVEELAQTRIYWQKDKKMVLTMMSGDINIWPEYKNRTIFDITNNLSIVILALRPSDEGTYECVVLKQEEDAFKREHLAEVTLSVKADFPTPSISDFEIPTSNIRRIICSTSGGFPEPHLSWLENGEELNAINTTVSQDPETELYAVSSKLDFNMTTNHSFMCLIKYGHLRVNQTFNWNTTKQEHFPDNLLPSWAITLISVNGIFVICCLTYCFAPRCRERRRNERLRRESVRPV" measurement=29803
molecule="E35D/A71G (protein, UniProt P33681 35-288, looked up, variant E35D A71G) T-lymphocyte activation …: VIHVTKEVKEVATLSCGHNVSVEELAQTRIYWQKDKKMVLTMMSGDMNIWPEYKNRTIFDITNNLSIVILGLRPSDEGTYECVVLKYEKDAFKREHLAEVTLSVKADFPTPSISDFEIPTSNIRRIICSTSGGFPEPHLSWLENGEELNAINTTVSQDPETELYAVSSKLDFNMTTNHSFMCLIKYGHLRVNQTFNWNTTKQEHFPDNLLPSWAITLISVNGIFVICCLTYCFAPRCRERRRNERLRRESVRPV" measurement=34149

Let's switch to this molecule now.
stdin: # lookup: PD-L1 MFI at 33.3 nM of E35D/T41S/M43V/M47I/L70M/A71G (protein, UniProt P33681 35-288, looked up, variant E35D T41S M43V M47I L70M A71G, Fc fusion) T-lymphocyte activation …: VIHVTKEVKEVATLSCGHNVSVEELAQTRIYWQKDKKMVLSMVSGDINIWPEYKNRTIFDITNNLSIVIMGLRPSDEGTYECVVLKYEKDAFKREHLAEVTLSVKADFPTPSISDFEIPTSNIRRIICSTSGGFPEPHLSWLENGEELNAINTTVSQDPETELYAVSSKLDFNMTTNHSFMCLIKYGHLRVNQTFNWNTTKQEHFPDNLLPSWAITLISVNGIFVICCLTYCFAPRCRERRRNERLRRESVRPV
stdout: 12978

Each recorded value in this set is attributed to patent US20220177587A1.
